Tested on: Bacillus subtilis
Assay: Antibacterial activity against Bacillus subtilis ATCC 23857 incubated for 18 hrs by broth microdilution method
Type: functional
MEASURED PARAMETER: MIC (µM)
Could you give me the number in µM? Just the number is fine.

Enquiry: If you can, please state the reported MIC value of `NCCCC[C@@H](NC(=O)[C@H](N)Cc1c[nH]c2ccccc12)C(=O)N[C@H](Cc1c[nH]c2ccccc12)C(=O)N[C@H](CCCCN)C(=O)N[C@H](Cc1c[nH]c2ccccc12)C(=O)NCC(=O)NCC(=O)N[C@H](Cc1c[nH]c2ccccc12)C(=O)N[C@H](CCCCN)C(=O)N[C@H](Cc1c[nH]c2ccccc12)C(=O)N[C@H](CCCCN)C(=O)N[C@H](Cc1c[nH]c2ccccc12)C(N)=O` .
Return: 2

Enquiry: Which MIC value is on record for `NCCCC[C@@H](N)C(=O)N[C@H](Cc1c[nH]c2ccccc12)C(=O)N[C@H](CCCCN)C(=O)N[C@H](Cc1c[nH]c2ccccc12)C(=O)N[C@H](CCCCN)C(=O)N1CCC[C@H]1C(=O)NCC(=O)N[C@H](CCCCN)C(=O)N[C@H](Cc1c[nH]c2ccccc12)C(=O)N[C@H](CCCCN)C(=O)N[C@H](Cc1c[nH]c2ccccc12)C(=O)N[C@H](CCCCN)C(N)=O` ?
Return: 2

Enquiry: Which MIC reading was recorded for the compound `NCCCC[C@@H](N)C(=O)N[C@H](Cc1c[nH]c2ccccc12)C(=O)N[C@H](CCCCN)C(=O)N[C@H](Cc1c[nH]c2ccccc12)C(=O)N[C@H](CCCCN)C(=O)N[C@@H](CC(N)=O)C(=O)NCC(=O)N[C@H](CCCCN)C(=O)N[C@H](Cc1c[nH]c2ccccc12)C(=O)N[C@H](CCCCN)C(=O)N[C@H](Cc1c[nH]c2ccccc12)C(=O)N[C@H](CCCCN)C(N)=O` ?
Return: 2

Enquiry: Item `NCCCC[C@@H](NC(=O)[C@H](N)Cc1c[nH]c2ccccc12)C(=O)N[C@H](Cc1c[nH]c2ccccc12)C(=O)N[C@H](CCCCN)C(=O)N[C@H](Cc1c[nH]c2ccccc12)C(=O)N1CCC[C@@H]1C(=O)N1CCC[C@H]1C(=O)N[C@H](Cc1c[nH]c2ccccc12)C(=O)N[C@H](CCCCN)C(=O)N[C@H](Cc1c[nH]c2ccccc12)C(=O)N[C@H](CCCCN)C(=O)N[C@H](Cc1c[nH]c2ccccc12)C(N)=O` has what recorded MIC?
Return: 2

Enquiry: What measured MIC goes with `NCCCC[C@@H](NC(=O)[C@H](N)Cc1c[nH]c2ccccc12)C(=O)N[C@H](Cc1c[nH]c2ccccc12)C(=O)N[C@H](CCCCN)C(=O)N[C@H](Cc1c[nH]c2ccccc12)C(=O)N1CCC[C@H]1C(=O)NCC(=O)N[C@H](Cc1c[nH]c2ccccc12)C(=O)N[C@H](CCCCN)C(=O)N[C@H](Cc1c[nH]c2ccccc12)C(=O)N[C@H](CCCCN)C(=O)N[C@H](Cc1c[nH]c2ccccc12)C(N)=O` ?
Return: 2

Enquiry: Requested field: MIC. Item: O=C(O)c1cn(C2CC2)c2cc(N3CCNCC3)c(F)cc2c1=O [CIPROFLOXACIN]
Return: 2

Enquiry: For CO/N=C(\C(=O)N[C@@H]1C(=O)N2C(C(=O)O)=C(COC(C)=O)CS[C@H]12)c1csc(N)n1 [CEFOTAXIME] , what is its reported MIC?
Return: 64
